# System: PPARg:RXRa DBDmut IVT, anti-RXR (DBD mutation: RXRa K156A/R161A, NR concentration 270 nM, RXRa partner concentration 90 nM)
# ASSAY_PROCEDURE: PBM binding z-score (relative to random genomic background probes); higher = stronger binding; sequences stand for … in GC…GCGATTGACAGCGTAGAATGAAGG
just bin them by PBM binding z-score: low band = under 0.4, middle band = from 0.4 up to 2, high band = 2 and over

Here's what some known entries look like.
{"CHAIN_SEQUENCE": "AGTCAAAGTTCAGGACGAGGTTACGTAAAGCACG", "CAT": "low band"}
{"CHAIN_SEQUENCE": "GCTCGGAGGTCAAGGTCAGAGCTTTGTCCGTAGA", "CAT": "high band"}
{"CHAIN_SEQUENCE": "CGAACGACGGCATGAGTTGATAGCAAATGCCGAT", "CAT": "low band"}
{"CHAIN_SEQUENCE": "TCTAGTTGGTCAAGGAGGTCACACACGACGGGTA", "CAT": "high band"}

For the record `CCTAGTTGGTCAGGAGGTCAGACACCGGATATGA` , report the class its PBM binding z-score corresponds to. middle band

Same lookup for `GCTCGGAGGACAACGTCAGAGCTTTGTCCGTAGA` , please. low band

Same lookup for `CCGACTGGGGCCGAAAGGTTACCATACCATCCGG` , please. low band

Same lookup for `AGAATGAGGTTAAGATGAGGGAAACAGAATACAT` , please. high band

Same lookup for `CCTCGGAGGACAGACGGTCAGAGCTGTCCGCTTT` , please. low band

Same lookup for `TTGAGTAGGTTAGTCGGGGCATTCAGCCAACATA` , please. high band

Same lookup for `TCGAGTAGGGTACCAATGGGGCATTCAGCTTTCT` , please. middle band

Same lookup for `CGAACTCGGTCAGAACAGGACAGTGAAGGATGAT` , please. middle band

Same lookup for `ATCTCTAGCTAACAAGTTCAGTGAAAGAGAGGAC` , please. low band

Same lookup for `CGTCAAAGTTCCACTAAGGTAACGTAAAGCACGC` , please. middle band

Same lookup for `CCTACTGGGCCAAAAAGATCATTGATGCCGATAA` , please. high band
